# Tested on: Vero cells
# MEASUREMENT PROTOCOL: Toxicity of compounds to the Vero host cells (TC50, TC0)
# Type: cell-based
# EXPERIMENTAL SETUP: Vero cells
# note: boundary value 30 mg/L maps to no; TC50 below it maps to yes

Prompt line: Quick check: does NC(=O)c1ncn([C@@H]2O[C@H](CO)[C@@H](O)[C@H]2O)n1 [Con, ribavirin, reference compound] have TC50 under 30 mg/L?
Response line: no

Prompt line: Can you check "Fc1ccc(OCCCCCCN2CCN(c3nccs3)CC2)cc1" next?
Response line: yes

Prompt line: Same again, this time with "Brc1ccc(OCCCCCN2CCN(c3nccs3)CC2)cc1"
Response line: yes

Prompt line: And "Brc1ccc(OCCCCCCN2CCN(c3nccs3)CC2)cc1" ?
Response line: no

Prompt line: Then "CC(C)c1ccc(OCCCCCN2CCN(c3nccs3)CC2)cc1" ?
Response line: yes

Next:
Prompt line: For "Cc1ccc(OCCCCCCN2CCN(c3nccs3)CC2)cc1" , is the recorded TC50 below the cut-off of 30 mg/L?
Response line: yes

Prompt line: Quick one: "COc1ccc(OCCCCCCN2CCN(c3nccs3)CC2)cc1.Cl"
Response line: no

Prompt line: Field entry: "Fc1ccc(OCCCCCN2CCN(c3nccs3)CC2)cc1"
Response line: no

Prompt line: Try "CC(C)(C)c1ccc(OCCCCCCN2CCN(c3nccs3)CC2)cc1" next.
Response line: yes

Prompt line: Queued: "CC(C)(C)c1ccc(OCCCCCN2CCN(c3nccs3)CC2)cc1"
Response line: yes

Prompt line: Same thing, different compound: "Cc1ccc(OCCCCCN2CCN(c3nccs3)CC2)cc1"
Response line: yes

Prompt line: Next up: "CCOc1ccc(OCCCCCN2CCN(c3nccs3)CC2)cc1"
Response line: yes

Prompt line: Another compound: "CCc1ccc(OCCCCCCN2CCN(c3nccs3)CC2)cc1"
Response line: yes

Prompt line: Another compound to look at: "Brc1ccc(OCCCCCN2CCN(c3nccs3)CC2)cc1.Cl"
Response line: yes

Prompt line: Another compound to check: "Cl.c1ccc(OCCCCCN2CCN(c3nccs3)CC2)cc1"
Response line: no

---

# Tested on: Vero cells
# MEASUREMENT PROTOCOL: Toxicity of compounds to the Vero host cells (TC50, TC0)
# Format: cell-based
# EXPERIMENTAL SETUP: Vero cells
ASSAY METRIC: TC0

Take a look at these entries with their results.
Prompt line: Param item = "Brc1ccc(OCCCCCN2CCN(c3nccs3)CC2)cc1.Cl" ; retrieve measured TC0.
Response line: 0.78 µg/mL

Prompt line: Also, "CCOc1ccc(OCCCCCN2CCN(c3nccs3)CC2)cc1" please.
Response line: 12.5 µg/mL

Prompt line: Would you kindly repeat that for "CC(C)(C)c1ccc(OCCCCCN2CCN(c3nccs3)CC2)cc1" ?
Response line: 3.13 µg/mL

Next:
Prompt line: Using the record for "CCc1ccc(OCCCCCN2CCN(c3nccs3)CC2)cc1" , report its TC0.
Response line: 3.13 µg/mL

Prompt line: Try the compound "CC(C)c1ccc(OCCCCCCN2CCN(c3nccs3)CC2)cc1.Cl"
Response line: 3.13 µg/mL

Prompt line: Now consider "Brc1ccc(OCCCCCCN2CCN(c3nccs3)CC2)cc1" .
Response line: 12.5 µg/mL

Prompt line: And what about the compound "Cc1ccc(OCCCCCN2CCN(c3nccs3)CC2)cc1" ?
Response line: 3.13 µg/mL
